measured_on: panel of 255 wild-type kinases (Homo sapiens, UniProt Q00534)
Sequence (Q00534 whole entry): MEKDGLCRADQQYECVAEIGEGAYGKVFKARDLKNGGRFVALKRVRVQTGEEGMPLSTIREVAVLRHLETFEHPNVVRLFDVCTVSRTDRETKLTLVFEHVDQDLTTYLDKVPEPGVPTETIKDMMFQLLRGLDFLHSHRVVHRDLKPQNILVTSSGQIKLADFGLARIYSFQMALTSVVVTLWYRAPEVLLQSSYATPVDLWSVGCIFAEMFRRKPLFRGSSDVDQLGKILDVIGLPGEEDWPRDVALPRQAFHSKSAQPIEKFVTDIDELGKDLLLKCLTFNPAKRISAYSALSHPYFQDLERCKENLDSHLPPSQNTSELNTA
assay_notes: Kinase panel profiling at 1 µmol/L (MSA or IMAP), percentage inhibition
Type: biochemical
assay_setup: CDK6/CycD3 kinase assay; 1 µmol/L single concentration; read-out: %-inhibition CDK6/CycD3
List of inhibition at 1 µM values.
Please respond with the number in % and leave the unit unwritten.

>>> print(df.to_string())
                                   compound  observed_measurement
0  C[C@H]1Oc2cc(cnc2N)-c2c(nn(C)c2C#N)CN(C)C(=O)c2ccc(F)cc21 [lorlatinib]                  2.65
1  Cn1cnc2c(F)c(Nc3ccc(Br)cc3F)c(C(=O)NOCCO)cc21 [binimetinib]               -0.0739
2  C[C@H](Nc1ncnc2nc[nH]c12)c1cc2cccc(Cl)c2c(=O)n1-c1ccccc1 [duvelisib]                  1.75
3  C=CC(=O)N1CCC([C@@H]2CCNc3c(C(N)=O)c(-c4ccc(Oc5ccccc5)cc4)nn32)CC1 [zanubrutinib]                  3.49
4  Cc1nc(NC(=O)N2CCC[C@H]2C(N)=O)sc1-c1ccnc(C(C)(C)C(F)(F)F)c1 [alpelisib]                     2
5  CN1CCN(c2ccc(C(=O)Nc3n[nH]c4ccc(Cc5cc(F)cc(F)c5)cc34)c(NC3CCOCC3)c2)CC1 [entrectinib]                   1.6
6  Cn1cc(-c2cc3c(N4CCN(c5ncc([C@@](C)(N)c6ccc(F)cc6)cn5)CC4)ncnn3c2)cn1 [avapritinib]                -0.371

Switching to the query record.
## Input Name the recorded inhibition at 1 µM for FC(F)(F)c1ccc(CNc2ccc(Cc3c[nH]c4ncc(Cl)cc34)cn2)cn1 [pexidartinib] .
## Output -6.52

* * *

measured_on: panel of 255 wild-type kinases (Homo sapiens, UniProt P35916)
Sequence (P35916 25-1363): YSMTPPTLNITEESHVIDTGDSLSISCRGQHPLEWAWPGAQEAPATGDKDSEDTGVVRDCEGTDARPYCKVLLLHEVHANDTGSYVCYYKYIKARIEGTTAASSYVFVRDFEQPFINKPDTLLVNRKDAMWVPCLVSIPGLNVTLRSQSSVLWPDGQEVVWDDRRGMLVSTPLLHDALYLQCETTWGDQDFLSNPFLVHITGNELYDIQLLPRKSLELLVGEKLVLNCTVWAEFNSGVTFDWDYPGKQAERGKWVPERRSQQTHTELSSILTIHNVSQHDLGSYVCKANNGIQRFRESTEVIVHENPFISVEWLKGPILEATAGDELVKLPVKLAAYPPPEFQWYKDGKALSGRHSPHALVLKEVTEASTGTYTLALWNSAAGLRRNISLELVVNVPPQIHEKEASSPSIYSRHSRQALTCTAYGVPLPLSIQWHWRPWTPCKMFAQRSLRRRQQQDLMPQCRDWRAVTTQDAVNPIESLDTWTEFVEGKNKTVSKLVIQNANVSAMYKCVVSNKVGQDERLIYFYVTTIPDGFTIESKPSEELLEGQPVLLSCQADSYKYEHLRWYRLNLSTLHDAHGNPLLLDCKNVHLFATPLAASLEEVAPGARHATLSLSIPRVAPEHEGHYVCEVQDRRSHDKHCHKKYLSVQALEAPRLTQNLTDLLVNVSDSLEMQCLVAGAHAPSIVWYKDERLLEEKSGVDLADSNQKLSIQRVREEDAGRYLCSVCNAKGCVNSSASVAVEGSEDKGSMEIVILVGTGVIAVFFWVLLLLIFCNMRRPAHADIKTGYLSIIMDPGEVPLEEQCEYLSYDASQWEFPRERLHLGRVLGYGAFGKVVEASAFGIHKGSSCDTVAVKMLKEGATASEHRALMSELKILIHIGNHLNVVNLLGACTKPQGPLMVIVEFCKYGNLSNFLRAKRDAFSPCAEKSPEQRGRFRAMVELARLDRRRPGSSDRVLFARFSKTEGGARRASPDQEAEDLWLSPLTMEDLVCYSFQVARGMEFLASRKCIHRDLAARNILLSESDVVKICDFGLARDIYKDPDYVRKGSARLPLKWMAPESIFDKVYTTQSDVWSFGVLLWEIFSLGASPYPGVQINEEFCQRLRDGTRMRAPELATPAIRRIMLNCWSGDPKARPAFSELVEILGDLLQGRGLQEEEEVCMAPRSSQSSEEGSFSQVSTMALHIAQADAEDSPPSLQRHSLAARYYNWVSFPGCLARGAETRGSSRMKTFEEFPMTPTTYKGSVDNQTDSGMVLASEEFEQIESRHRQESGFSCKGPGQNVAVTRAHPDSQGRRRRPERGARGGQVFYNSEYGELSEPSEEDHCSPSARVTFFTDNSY
assay_notes: Kinase panel profiling at 1 µmol/L (MSA or IMAP), percentage inhibition
Format: biochemical
assay_setup: kinase FLT4; 1 µmol/L single concentration; read-out: %-inhibition at 1 µmol/L, FLT4
measure_name: inhibition at 1 µM (%)
Please respond with the number in % and leave the unit unwritten.

Example entries begin here.
>>> df
                                   compound  observed_measurement
0  CCN1CCN(c2ccc(Nc3cc(N(C)C(=O)Nc4c(Cl)c(OC)cc(OC)c4Cl)ncn3)cc2)CC1 [infigratinib]                    92
1  Cc1cc(Nc2ncnc3ccc(NC4=NC(C)(C)CO4)cc23)ccc1Oc1ccn2ncnc2c1 [tucatinib]                    13
2  CO[C@]1(C(=O)N[C@@H](C)c2ccc(-n3cc(F)cn3)nc2)CC[C@H](c2nc(C)cc(Nc3cc(C)[nH]n3)n2)CC1 [pralsetinib]                    99

## Input # value lookup — system panel of 255 wild-type kinases (Homo sapiens, UniProt P35916), readout inhibition at 1 µM, item FC(F)(F)c1ccc(CNc2ccc(Cc3c[nH]c4ncc(Cl)cc34)cn2)cn1 [pexidartinib]
## Output 66

* * *

measured_on: UniProtKB P54764
Sequence (P54764 20-986): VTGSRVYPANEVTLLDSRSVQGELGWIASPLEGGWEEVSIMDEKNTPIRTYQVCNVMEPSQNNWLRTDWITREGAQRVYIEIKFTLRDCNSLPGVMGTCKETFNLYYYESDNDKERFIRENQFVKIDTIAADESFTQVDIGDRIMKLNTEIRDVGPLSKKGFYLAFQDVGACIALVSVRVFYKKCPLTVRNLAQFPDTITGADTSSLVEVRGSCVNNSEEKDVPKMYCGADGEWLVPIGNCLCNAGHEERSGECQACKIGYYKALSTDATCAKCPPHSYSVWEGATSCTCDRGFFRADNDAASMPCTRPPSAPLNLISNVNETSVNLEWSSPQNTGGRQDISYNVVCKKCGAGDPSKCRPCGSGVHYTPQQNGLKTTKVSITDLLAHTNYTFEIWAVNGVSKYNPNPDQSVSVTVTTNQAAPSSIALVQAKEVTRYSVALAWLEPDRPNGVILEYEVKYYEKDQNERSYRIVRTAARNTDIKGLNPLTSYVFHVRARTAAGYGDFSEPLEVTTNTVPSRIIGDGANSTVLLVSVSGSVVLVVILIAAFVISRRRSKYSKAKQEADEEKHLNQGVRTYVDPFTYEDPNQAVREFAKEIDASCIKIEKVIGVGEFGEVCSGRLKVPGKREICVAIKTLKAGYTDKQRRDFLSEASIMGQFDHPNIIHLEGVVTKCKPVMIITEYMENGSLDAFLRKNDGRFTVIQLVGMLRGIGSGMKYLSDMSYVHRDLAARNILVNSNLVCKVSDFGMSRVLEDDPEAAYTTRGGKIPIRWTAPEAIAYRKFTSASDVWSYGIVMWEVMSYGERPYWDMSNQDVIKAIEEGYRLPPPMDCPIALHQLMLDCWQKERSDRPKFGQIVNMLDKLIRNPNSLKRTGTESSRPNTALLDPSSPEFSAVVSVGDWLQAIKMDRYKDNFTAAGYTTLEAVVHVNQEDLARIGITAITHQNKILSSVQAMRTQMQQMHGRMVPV
assay_notes: Kinase panel profiling at 1 µmol/L (MSA or IMAP), percentage inhibition
Type: biochemical
assay_setup: kinase EPHA4; 1 µmol/L single concentration; read-out: %-inhibition at 1 µmol/L, EPHA4
measure_name: inhibition at 1 µM (%)
Please respond with the number in % and leave the unit unwritten.

Example entries begin here.
In [3]: df
Out[3]:
                                   molecule  result_units  observed_measurement
0  C[C@H](Nc1ncnc2nc[nH]c12)c1cc2cccc(Cl)c2c(=O)n1-c1ccccc1 [duvelisib]             %                -0.265
1  CCN1C(=O)N(c2c(F)c(OC)cc(OC)c2F)Cc2cnc3[nH]c(CN4CCOCC4)cc3c21 [pemigatinib]             %                 -1.83
2  O=C(Nc1cnn2ccc(N3CCC[C@@H]3c3cc(F)ccc3F)nc12)N1CC[C@H](O)C1 [larotrectinib]             %               -0.0271
3  COc1ccc(CN2C3CC2CN(c2ccc(-c4cc(OCC(C)(C)O)cn5ncc(C#N)c45)cn2)C3)cn1 [selpercatinib]             %                    58

## Input Name the recorded inhibition at 1 µM for COc1cc2ncnc(Nc3ccc(F)c(Cl)c3)c2cc1NC(=O)/C=C/CN1CCCCC1 [dacomitinib] .
## Output 38

## Input Name the recorded inhibition at 1 µM for C=CC(=O)N1CCC([C@@H]2CCNc3c(C(N)=O)c(-c4ccc(Oc5ccccc5)cc4)nn32)CC1 [zanubrutinib] .
## Output -0.204

## Input Name the recorded inhibition at 1 µM for C[C@H]1Oc2cc(cnc2N)-c2c(nn(C)c2C#N)CN(C)C(=O)c2ccc(F)cc21 [lorlatinib] .
## Output 25

## Input Name the recorded inhibition at 1 µM for CCc1nc(C(N)=O)c(Nc2ccc(N3CCC(N4CCN(C)CC4)CC3)c(OC)c2)nc1NC1CCOCC1 [gilteritinib] .
## Output 36

## Input Name the recorded inhibition at 1 µM for COC(=O)N[C@@H](C)CNc1nccc(-c2cn(C(C)C)nc2-c2cc(Cl)cc(NS(C)(=O)=O)c2F)n1 [encorafenib] .
## Output 10

## Input Name the recorded inhibition at 1 µM for CN1CCN(c2ccc(C(=O)Nc3n[nH]c4ccc(Cc5cc(F)cc(F)c5)cc34)c(NC3CCOCC3)c2)CC1 [entrectinib] .
## Output 28

## Input Name the recorded inhibition at 1 µM for Cn1cc(-c2cc3c(N4CCN(c5ncc([C@@](C)(N)c6ccc(F)cc6)cn5)CC4)ncnn3c2)cn1 [avapritinib] .
## Output 35

## Input Name the recorded inhibition at 1 µM for Cc1cc(Nc2ncnc3ccc(NC4=NC(C)(C)CO4)cc23)ccc1Oc1ccn2ncnc2c1 [tucatinib] .
## Output -2.34

## Input Name the recorded inhibition at 1 µM for Cc1nc(NC(=O)N2CCC[C@H]2C(N)=O)sc1-c1ccnc(C(C)(C)C(F)(F)F)c1 [alpelisib] .
## Output -5

## Input Name the recorded inhibition at 1 µM for CCN1CCN(c2ccc(Nc3cc(N(C)C(=O)Nc4c(Cl)c(OC)cc(OC)c4Cl)ncn3)cc2)CC1 [infigratinib] .
## Output 0.256

## Input Name the recorded inhibition at 1 µM for FC(F)(F)c1ccc(CNc2ccc(Cc3c[nH]c4ncc(Cl)cc34)cn2)cn1 [pexidartinib] .
## Output 1.65
